Biological target: MCR-4 (Homo sapiens)
Construct: expressed in transfected cells; host or cells: HEK 293
Assay: Melanocortin receptor binding assay, competition with 125I-HP 467, HEK 293 cells expressing hMCR-4
Details: inhibition of binding of 125I-HP 467, HEK 293 cells expressing MCR-4; read-out: MC-4 IC50
Entries and their measured pIC50 follow.
The meaning of pIC50 here: minus log10 of the concentration in molar units.

## Task Form: Entry = CCCCNc1ccc(C2C(CO)c3ccccc3CN2CCCC(CN)NCCC2CCCCC2)cc1 (stereo not shown) | System = MCR-4 (Homo sapiens) | pIC50 = ____
## Result 5.30

====

Target: MCR-1 (Homo sapiens)
Construct: expressed in transfected cells; host or cells: HEK 293
Sequence (Q01726 whole entry): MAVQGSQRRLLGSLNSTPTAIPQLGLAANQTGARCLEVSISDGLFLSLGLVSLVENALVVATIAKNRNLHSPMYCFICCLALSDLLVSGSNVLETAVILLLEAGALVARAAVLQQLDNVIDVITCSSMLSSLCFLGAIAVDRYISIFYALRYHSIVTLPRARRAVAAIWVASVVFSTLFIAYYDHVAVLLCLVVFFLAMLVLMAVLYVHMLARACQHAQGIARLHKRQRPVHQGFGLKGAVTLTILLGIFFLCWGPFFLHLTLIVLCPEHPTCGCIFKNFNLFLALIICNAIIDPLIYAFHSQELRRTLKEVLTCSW
Assay: Melanocortin receptor binding assay, competition with 125I-HP 467, HEK 293 cells expressing hMCR-1
Conditions: competition with 125I-HP 467, HEK 293 cells expressing MCR-1; read-out: MC-1 IC50
Class (required): determined from IC50; valid ranges are bucket 1: < 200 nM; bucket 2: ≥ 200 nM and < 700 nM; bucket 3: ≥ 700 nM

Use the examples below as a reference point.
CCCCNc1ccc(C2C(CNCc3ccccc3O)c3ccccc3CN2CCCCC(CN)NC)cc1 (stereo not shown) [TRG 2409-2]    bucket 2
NCC1c2ccccc2CN(CCCCC(CN)N2CCCC2)C1c1ccc(-c2ccccc2)cc1 (stereo not shown) [TRG 2411-31]    bucket 3
CCCCNc1ccc(C2C(CN)c3ccccc3CN2CCCCC(CN)NCC)cc1 (stereo not shown) [TRG 2411-101]    bucket 1
CCCCNc1ccc(C2C(CNC3CCCCC3)c3ccccc3CN2CCCCC(CN)NCCc2ccc(Br)cc2)cc1 (stereo not shown) [TRG 2411-91]    bucket 2
CCCCNc1ccc(C2C(CN)c3ccccc3CN2CCCCC(CN)NCCc2ccc3ccccc3c2)cc1 (stereo not shown) [TRG 2411-110]    bucket 1
NCC(N)CCCCN1Cc2ccccc2C(CN)C1c1ccc(-c2ccccc2)cc1 (stereo not shown) [TRG 2411-23]    bucket 2
NCC(CCCN1Cc2ccccc2C(CNC2CCCCC2)C1c1ccc(-c2ccccc2)cc1)NCc1ccccc1 (stereo not shown) [TRG 2411-135]    bucket 3
CCCCNC(CN)CCCCN1Cc2ccccc2C(CNCCc2ccccc2)C1c1ccc(NCC)cc1 (stereo not shown) [TRG 2411-38]    bucket 1

## Task Note: place this molecule into its band. Item: CNC(C)CNC(CN)CCCN1Cc2ccccc2C(CNCCc2ccccc2)C1c1ccc(-c2ccccc2)cc1 (stereo not shown) [TRG 2411-119]
## Result bucket 2

## Task Now the same for CNC(C)CNC(CN)CCCCN1Cc2ccccc2C(CNC2CCCCC2)C1c1ccc(-c2ccccc2)cc1 (mixture of isomers) [TRG 2411-15]
## Result bucket 3

## Task Now the same for CCCCNc1ccc(C2C(CN)c3ccccc3CN2CCCCC(CN)NCc2ccc(OC)cc2)cc1 (stereo not shown) [TRG 2411-109]
## Result bucket 1

## Task Now the same for NCC(CCCN1Cc2ccccc2C(CNC2CCCCC2)C1c1ccc(-c2ccccc2)cc1)NCC1CCCCC1 (stereo not shown) [TRG 2411-134]
## Result bucket 3

## Task Now the same for CCCCNc1ccc(C2C(CNC3CCCCC3)c3ccccc3CN2CCCCC(CN)NC)cc1 (stereo not shown) [TRG 2409-14]
## Result bucket 1

## Task Now the same for CNC(CNC(CN)CCCN1Cc2ccccc2C(CNC2CCCCC2)C1c1ccc(-c2ccccc2)cc1)Cc1ccccc1 (stereo not shown) [TRG 2411-130]
## Result bucket 3

## Task Now the same for NCC(CCCCN1Cc2ccccc2C(CN)C1c1ccc(-c2ccccc2)cc1)NCCO (stereo not shown) [TRG 2411-29]
## Result bucket 2

====

Target: MCR-1 (Homo sapiens)
Construct: expressed in transfected cells; host or cells: HEK 293
Assay: Melanocortin receptor binding assay, competition with 125I-HP 467, HEK 293 cells expressing hMCR-1
Details: TRG 2414 library; inhibition of binding of 125I-HP 467, HEK 293 cells expressing MCR-1; read-out: MC-1 IC50
Entries and their measured pIC50 follow.
The meaning of pIC50 here: minus log10 of the concentration in molar units.

NCC(CCCCN1Cc2ccccc2C(CNCCc2cccc(Cl)c2)C1c1ccccc1Br)NCCc1ccccc1 (stereo not drawn) [Cmpd 214]    5.13
CCCOc1ccc(C2C(CNCCc3ccc(OC)cc3)c3ccccc3CN2CCCCC(CN)NCC(C)c2ccc(CC(C)C)cc2)cc1 (stereo not drawn) [Cmpd 188]    5.10

## Task # input compound: NCC(CCCCN1Cc2ccccc2C(CNC2CCCCC2)C1c1ccccc1Br)NCc1ccccc1 (stereo not drawn) [Cmpd 239] ; wanted: its pIC50
## Result 5.48

## Task Now the same for COc1ccc(CCNCC2c3ccccc3CN(CCCCC(CN)NCCc3ccccc3)C2c2ccccc2Br)cc1 (stereo not drawn) [Cmpd 226]
## Result 5.29

## Task Now the same for CCOc1ccccc1CNCC1c2ccccc2CN(CCCCC(CN)NCCc2ccccc2)C1c1ccccc1Br (stereo not drawn) [Cmpd 206]
## Result 5.15

## Task Now the same for CCCOc1ccc(C2C(CNCc3ccccc3)c3ccccc3CN2CCCCC(CN)NCC(C)c2ccc(CC(C)C)cc2)cc1 (mixture of isomers) [Cmpd 192]
## Result 4.94

====

Entries and their measured IC50 follow.
Target: MCR-4 (Homo sapiens, UniProt P32245)
Construct: expressed in transfected cells; host or cells: HEK 293
Sequence (P32245 whole entry): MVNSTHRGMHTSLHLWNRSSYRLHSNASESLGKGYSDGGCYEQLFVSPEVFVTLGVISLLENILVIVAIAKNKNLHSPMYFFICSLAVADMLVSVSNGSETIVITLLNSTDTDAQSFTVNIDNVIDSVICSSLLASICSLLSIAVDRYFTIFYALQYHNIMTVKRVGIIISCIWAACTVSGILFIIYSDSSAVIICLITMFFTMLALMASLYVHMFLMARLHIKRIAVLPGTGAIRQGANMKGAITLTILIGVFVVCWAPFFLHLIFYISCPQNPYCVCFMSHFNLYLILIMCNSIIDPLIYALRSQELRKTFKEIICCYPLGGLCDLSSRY
Experiment: Melanocortin receptor binding assay, competition with 125I-HP 467, HEK 293 cells expressing hMCR-4
Conditions: inhibition of binding of 125I-HP 467, HEK 293 cells expressing MCR-4; read-out: MC-4 IC50
API: value field is a number in nM; no unit string.

Worked cases, answers included:
CCCCNc1ccc(C2C(CNCCc3ccccc3)c3ccccc3CN2CCCC(CN)N2CCCC2)cc1 (stereo not shown)    880
COc1cccc(CCNCC2c3ccccc3CN(CCCCC(CN)NCc3ccccc3)C2c2cccc(C(F)(F)F)c2)c1 (stereo not shown)    1370
CCCCOc1ccc(C2C(CNCCc3ccccc3)c3ccccc3CN2CCCC(CN)NC)cc1 (stereo not shown)    1060
CCCCNc1ccc(C2C(CNCCc3ccccc3)c3ccccc3CN2CCCC(CN)NCCc2ccc(OC)cc2)cc1 (stereo not shown)    1440
CCCCNc1ccc(C2C(CNC3CCCCC3)c3ccccc3CN2CCCC(CN)NCCc2ccc(Br)cc2)cc1 (stereo not shown)    860
CCNc1ccc(C2C(CNCCc3ccccc3)c3ccccc3CN2CCCC(CN)NCC2CC2CN(CC)CC)cc1 (stereo not shown)    1810

Let's switch to this molecule now.
## Task Form: Entry = NCC(CCCCN1Cc2ccccc2C(CNCCc2ccc(O)cc2)C1c1cc(C(F)(F)F)cc(C(F)(F)F)c1)NCc1ccccc1 (stereo not shown) | System = MCR-4 (Homo sapiens, UniProt P32245) | IC50 = ____
## Result 760

====

Molecular target: MCR-4 (Homo sapiens)
Construct: expressed in transfected cells; host or cells: HEK 293
Experiment: Melanocortin receptor binding assay, competition with 125I-HP 467, HEK 293 cells expressing hMCR-4
Conditions: inhibition of binding of 125I-HP 467, HEK 293 cells expressing MCR-4; read-out: MC-4 IC50
IC50 strictly under 4000 nM means criterion met; at 4000 nM or over means criterion not met.

Use the examples below as a reference point.
COc1ccc(CCNCC2c3ccccc3CN(CCCCC(CN)NCc3ccc(OC)cc3)C2c2cc(C(F)(F)F)cc(C(F)(F)F)c2)cc1 (stereo not shown)    criterion met
CCNc1ccc(C2C(CNCCc3ccccc3)c3ccccc3CN2CCCC(CN)NCc2ccccc2CNCc2ccccc2)cc1 (stereo not shown)    criterion met
CCCCNc1ccc(C2C(CNCCc3ccccc3)c3ccccc3CN2CCCC(CN)NCCc2ccc(Br)cc2)cc1 (stereo not shown)    criterion met

## Task Criterion: IC50 strictly below 4000 nM. Is it met by COc1ccc(CCNCC2c3ccccc3CN(CCCCC(CN)NCc3ccc(-c4ccccc4)cc3)C2c2cc(C(F)(F)F)cc(C(F)(F)F)c2)cc1OC (stereo not shown) ?
## Result criterion met

## Task Now the same for NCC(CCCCN1Cc2ccccc2C(CNCCc2ccc(Cl)cc2)C1c1cc(C(F)(F)F)cc(C(F)(F)F)c1)NCc1ccc(Br)cc1 (stereo not shown)
## Result criterion not met

====

Biological target: MCR-4 (Homo sapiens)
Test: cAMP assay for melanocortin receptors, HEK 293 cells expressing MCR-4
Details: read-out: MC-4 EC50 (cAMP)
Entries and their measured EC50 follow.

CNC(CN)CN1Cc2ccccc2C(CNC2CCCCC2)C1c1ccc(O)cc1 (centres unmarked)    > 50 µM
CNC(CN)CCCCN1Cc2ccccc2C(CNC2CCCCC2)C1c1ccc(O)cc1 (centres unmarked)    > 50 µM
CNC(CN)CCCCN1Cc2ccccc2C(CNC2CCCCC2)C1c1ccc(Oc2ccccc2)cc1 (centres unmarked)    18.5 µM

## Task # input molecule: CNC(CN)CCCCN1Cc2ccccc2C(CNC2CCCCC2)C1c1ccc2cccc(O)c2n1 (centres unmarked) ; wanted: its EC50
## Result > 50 µM

## Task Now the same for CNC(CN)CCCCN1Cc2ccccc2C(CNC2CCCCC2)C1c1ccc(N(C)C)cc1 (centres unmarked)
## Result > 50 µM

## Task Now the same for CNC(CN)CCCCN1Cc2ccccc2C(CNC2CCCCC2)C1c1ccc(Br)cc1 (centres unmarked)
## Result > 50 µM

## Task Now the same for CNC(CN)CCCCN1Cc2ccccc2C(CNC2CCCCC2)C1c1ccc(Cl)cc1Cl (centres unmarked)
## Result 46.3 µM

## Task Now the same for CNC(CN)CCCCN1Cc2ccccc2C(CNC2CCCCC2)C1c1ccc(C(F)(F)F)cc1 (centres unmarked)
## Result > 50 µM

The reported measurements were obtained from patent US6608082B1.
